Test system: HeLa Kyoto;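 note: HeLa Kyoto cells synchronized by double thymidine or nocodazole block, proteins quantified by TMT10plex mass spectrometry, three independent biological replicates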
Assay: melting temperature (median over replicates), in situ; higher = more thermally stable
Details: cell cycle stage: mitosis
Observation Type: melting temperature (°C)
Just the number please, in °C, no unit attached.

>  <Substance>
ZWILCH

>  <Observation Type>
melting temperature

>  <Quantity Unit>
°C

>  <Observed>
50.2

$$$$

Task item: Tell me its melting temperature on HeLa Kyoto: `XPNPEP3`
Reply: 53.3

Task item: Tell me its melting temperature on HeLa Kyoto: MAAGVDCGDGVGARQHVFLVSEYLKDASKKMKNGLMFVKLVNPCSGEGAIYLFNMCLQQLFEVKVFKEKHHSWFINQSVQSGGLLHFATPVDPLFLLLHYLIKADKEGKFQPLDQVVVDNVFPNCILLLKLPGLEKLLHHVTEEKGNPEIDNKKYYKYSKEKTLKWLEKKVNQTVAALKTNNVNVSSRVQSTAFFSGDQASTDKEEDYIRYAHGLISDYIPKELSDDLSKYLKLPEPSASLPNPPSKKIKLSDEPVEAKEDYTKFNTKDLKTEKKNSKMTAAQKALAKVDKSGMKSIDTFFGVKNKKKIGKV [RNASEH2B]
Reply: 49.7
